All figures here come from patent US20070249639A1.

Reported inhibition at 10 µM values follow for various molecules
Target: human topoisomerase II α (Homo sapiens, UniProt P11388)
Construct: purchased Professor Neil Osheroff (Vanderbilt University, Nashville, Tenn., USA)
Sequence (P11388 whole entry): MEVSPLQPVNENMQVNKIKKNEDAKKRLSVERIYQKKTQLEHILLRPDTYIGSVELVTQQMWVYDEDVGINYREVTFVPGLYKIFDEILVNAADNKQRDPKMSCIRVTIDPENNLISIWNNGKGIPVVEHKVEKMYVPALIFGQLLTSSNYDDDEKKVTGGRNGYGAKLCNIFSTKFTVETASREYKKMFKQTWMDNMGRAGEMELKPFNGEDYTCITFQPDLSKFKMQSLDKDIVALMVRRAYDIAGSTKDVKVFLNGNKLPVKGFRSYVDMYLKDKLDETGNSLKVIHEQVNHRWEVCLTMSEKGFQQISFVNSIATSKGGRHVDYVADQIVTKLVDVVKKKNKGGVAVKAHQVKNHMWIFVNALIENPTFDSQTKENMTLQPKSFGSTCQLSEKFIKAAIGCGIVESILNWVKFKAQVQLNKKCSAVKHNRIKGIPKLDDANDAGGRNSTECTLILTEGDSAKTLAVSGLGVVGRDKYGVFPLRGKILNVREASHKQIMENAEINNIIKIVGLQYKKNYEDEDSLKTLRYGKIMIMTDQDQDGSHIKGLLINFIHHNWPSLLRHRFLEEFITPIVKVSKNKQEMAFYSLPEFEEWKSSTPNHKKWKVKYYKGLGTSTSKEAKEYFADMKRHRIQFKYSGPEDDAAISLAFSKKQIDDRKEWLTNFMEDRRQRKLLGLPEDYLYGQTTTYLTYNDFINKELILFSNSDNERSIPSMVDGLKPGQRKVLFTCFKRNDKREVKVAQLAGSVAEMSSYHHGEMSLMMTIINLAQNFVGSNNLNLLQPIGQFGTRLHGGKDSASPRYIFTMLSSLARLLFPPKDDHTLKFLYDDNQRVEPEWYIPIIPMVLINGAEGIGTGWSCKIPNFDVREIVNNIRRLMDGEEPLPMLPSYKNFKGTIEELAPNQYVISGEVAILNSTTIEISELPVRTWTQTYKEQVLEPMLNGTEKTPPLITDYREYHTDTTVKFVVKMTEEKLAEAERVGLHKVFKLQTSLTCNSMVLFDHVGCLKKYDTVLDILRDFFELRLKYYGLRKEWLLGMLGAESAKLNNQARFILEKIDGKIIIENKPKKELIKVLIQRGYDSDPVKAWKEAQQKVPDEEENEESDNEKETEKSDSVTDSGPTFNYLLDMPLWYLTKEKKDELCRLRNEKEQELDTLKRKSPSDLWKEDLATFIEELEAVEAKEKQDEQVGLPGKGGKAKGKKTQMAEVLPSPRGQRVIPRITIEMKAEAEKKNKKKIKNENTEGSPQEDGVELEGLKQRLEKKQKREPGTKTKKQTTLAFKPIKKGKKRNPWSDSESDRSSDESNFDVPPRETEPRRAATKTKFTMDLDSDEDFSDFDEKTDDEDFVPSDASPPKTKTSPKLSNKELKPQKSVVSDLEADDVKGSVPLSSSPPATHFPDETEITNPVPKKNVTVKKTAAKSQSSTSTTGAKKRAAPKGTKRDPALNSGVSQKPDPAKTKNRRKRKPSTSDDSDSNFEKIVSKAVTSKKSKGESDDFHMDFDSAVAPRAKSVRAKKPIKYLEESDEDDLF
Test: Topoisomerase II ATPase assay (Malachite Green)
Assay type: biochemical
Settings: Percent inhibition @10 μM, Malachite Green assay; read-out: TOPO II inh. (inhibition of the TOPO ATPase activity)

Some molecules with recorded inhibition at 10 µM:
                                   molecule                           target_of_assay  data_value
0  CCc1nc2c(NC(C)C(F)(F)F)nc(Nc3ccc4ncsc4c3)nc2[nH]1 (stereo not drawn)  human topoisomerase II α (Homo sapiens, UniProt P11388)   50 to 65%
1  c1nc2c(NC3CCCCCC3)nc(Nc3ccc4nsnc4c3)nc2[nH]1  human topoisomerase II α (Homo sapiens, UniProt P11388)       < 50%
2  Cc1nc2c(NC(C)(C)C)nc(Nc3ccc4ccccc4c3)nc2[nH]1  human topoisomerase II α (Homo sapiens, UniProt P11388)       < 50%
3  C=CCc1nc2c(NC(C)(C)C)nc(Nc3ccc4ccccc4c3)nc2[nH]1  human topoisomerase II α (Homo sapiens, UniProt P11388)       < 50%
4  C=C(C=Cc1nc(OCCN2CCOCC2)sc1C)Nc1nc(NC(C)(C)C)c2nc(C3CC3)[nH]c2n1  human topoisomerase II α (Homo sapiens, UniProt P11388)   65 to 80%

input: Would you please give the reported inhibition at 10 µM of CCCc1nc2c(NC(C)(C)C)nc(Nc3ccc4ncsc4c3)nc2[nH]1 with human topoisomerase II α (Homo sapiens, UniProt P11388)?
output: < 50%

input: Would you please give the reported inhibition at 10 µM of CC(C)(C)Nc1nc(Nc2ccc3ncsc3c2)nc2[nH]c(N)nc12 with human topoisomerase II α (Homo sapiens, UniProt P11388)?
output: 65 to 80%

input: Would you please give the reported inhibition at 10 µM of c1cncc(N2CCN(c3nc(Nc4ccc5ncsc5c4)nc4[nH]cnc34)CC2)c1 with human topoisomerase II α (Homo sapiens, UniProt P11388)?
output: < 50%

input: Would you please give the reported inhibition at 10 µM of CC(C)c1nc2c(NC(C)(C)C)nc(Nc3ccc4ncsc4c3)nc2[nH]1 with human topoisomerase II α (Homo sapiens, UniProt P11388)?
output: < 50%

input: Would you please give the reported inhibition at 10 µM of CCc1nc2c(NC(C)(C)C)nc(Nc3ccc4oc(=O)ccc4c3)nc2[nH]1 with human topoisomerase II α (Homo sapiens, UniProt P11388)?
output: 65 to 80%

input: Would you please give the reported inhibition at 10 µM of CC(C)(C)Nc1nc(Nc2ccc3ncsc3c2)nc2[nH]c(C3CC3)nc12 with human topoisomerase II α (Homo sapiens, UniProt P11388)?
output: 65 to 80%

input: Would you please give the reported inhibition at 10 µM of CCc1nc2c(N3CCCC3C)nc(Nc3ccc4ncsc4c3)nc2[nH]1 (stereo not drawn) with human topoisomerase II α (Homo sapiens, UniProt P11388)?
output: < 50%

---

Reported inhibition at 10 µM values follow for various molecules
Biological target: human topoisomerase II α (Homo sapiens, UniProt P11388)
Construct: purchased Professor Neil Osheroff (Vanderbilt University, Nashville, Tenn., USA)
Assay: Topoisomerase II ATPase assay (Malachite Green)
Type: biochemical
Details: Percent inhibition @10 μM, Malachite Green assay; read-out: TOPO II inh. (inhibition of the TOPO ATPase activity)

>>> print(df.to_string())
                                        mol     observation_type  data_value
0  c1ccc(N2CCN(c3nc(Nc4ccc5ncccc5c4)nc4[nH]cnc34)CC2)nc1  inhibition at 10 µM       < 50%
1  C=Cc1nc2c(NC(C)(C)C)nc(Nc3ccc4ccccc4c3)nc2[nH]1  inhibition at 10 µM       < 50%
2  c1csc(-c2ccc(Nc3nc(NC4CCCCCC4)c4nc[nH]c4n3)cc2)n1  inhibition at 10 µM       < 50%
3  Cc1nc2ccc(Nc3nc(N4CCN(c5ccccn5)CC4)c4nc[nH]c4n3)cc2s1  inhibition at 10 µM       < 50%
4  C=C(C=Cc1nc(OCCN2CCOCC2)sc1C)Nc1nc(NC(C)(C)C)c2nc(C(C)C)[nH]c2n1  inhibition at 10 µM       < 50%

Let us move to another entry and its inhibition at 10 µM.
input: Please report inhibition at 10 µM for the following molecule: CCC(C)(C)Nc1nc(Nc2ccc3ncsc3c2)nc2[nH]cnc12
output: 50 to 65%
